Test system: MKN1 cells
Assay: MKN1 CTG proliferation assay (120 h) (gastric cancer, wt amplified)
Assay type: cell-based
Settings: Homo sapiens, MKN-1
Description: MKN1 cells (JCRB0252) are dispensed into black 384-well plates, flat and clear bottom (Greiner, PNr. 781091) at a density of 200 cells per well in 60 μl RPMI-1640 ATCC-Formulation (Gibco #A10491)+10% FCS (fetal calf serum, HyClone, SH30084.03). […] For the TO time point measurement, untreated cells are analyzed at the time of compound addition. Plates are incubated for 120 h, and cell viability is measured using CellTiter-Glo luminescent cell viability reagent (Promega product code G7570). […]
Assignment: determine reported IC50 for the given compounds.
One number for each entry, in µM.

- C[C@H](Oc1nc(-c2onc3c2CCC[C@@]32CCCc3sc(N)c(C#N)c32)nc2c1[nH]c(=O)n2[C@@H]1CCOC1)[C@@H]1CCCN1C [I-8]: 0.041
- Cc1cn([C@@H]2CCOC2)c2nc(-c3onc4c3CCC[C@@]43CCCc4sc(N)c(C#N)c43)nc(O[C@@H](C)[C@@H]3CCCN3C)c12 [I-41]: 0.696
- CCn1c(=O)n([C@@H]2CCOC2)c2nc(-c3onc4c3CCC[C@@]43CCCc4sc(N)c(C#N)c43)nc(O[C@@H](C)[C@@H]3CCCN3C)c21 [I-21]: 0.022
- CO[C@H]1CCN(C)[C@@H]1[C@H](C)Oc1nc(-c2noc3c2CCC[C@@]32CCCc3sc(N)c(C#N)c32)nc2c1CN(C1COC1)C[C@]21CCOC1 [II-13]: 0.005
- C[C@H](Oc1nc(-c2noc3c2CCC[C@@]32CCCc3sc(N)c(C#N)c32)nc2c1CNC[C@]21CCOC1)[C@@H]1CCCN1C [II-15]: 0.003
- C[C@H](Oc1nc(-c2noc3c2CCC[C@@]32CCCc3sc(N)c(C#N)c32)nc2c1COC[C@@]21CCOC1)[C@@H]1CCCN1C [II-9a]: 0.209
- C[C@H](Oc1nc(-c2noc3c2CCC[C@@]32CCCc3sc(N)c(C#N)c32)nc2c1CN(C1COC1)C[C@]21CCOC1)[C@@H]1CCCN1C [II-12]: 0.01
- C[C@H](Oc1nc(-c2onc3c2CCC[C@@]32CCCc3sc(N)c(C#N)c32)nc2c1n(C)c(=O)n2[C@@H]1CCOC1)[C@@H]1C[C@H](F)CN1C [I-27]: 0.126
- CO[C@H]1CCN(C)[C@@H]1[C@H](C)Oc1nc(-c2onc3c2CCC[C@@]32CCCc3sc(N)c(C#N)c32)nc2c1n(C)c(=O)n2[C@@H]1CCCOC1 [I-6]: 0.09
- CO[C@@H]1C[C@@H]([C@H](C)Oc2nc(-c3onc4c3CCC[C@@]43CCCc4sc(N)c(C#N)c43)nc3c2n(C)c(=O)n3[C@@H]2CCOC2)N(C)C1 [I-3]: 0.022

# per-item lookup of IC50; items listed below
1. CCn1c(=O)n([C@@H]2CCCOC2)c2nc(-c3onc4c3CCC[C@@]43CCCc4sc(N)c(C#N)c43)nc(OC[C@@]34CCCN3C[C@H](F)C4)c21 [I-33]
2. C[C@H](Oc1nc(-c2onc3c2CCC[C@@]32CCCc3sc(N)c(C#N)c32)nc2c1n(C)c(=O)n2[C@H]1CCOC1)[C@@H]1CCCN1C [I-9]

output:
1. 4.15
2. 0.135
